- Test system: human skin tissue
- experimental-context: pH 7.4
Response field label takes true (1) when In vitro penetration rate (apparent flux), prodrug compounds is strictly below 2000 μg/cm^2/h and false (0) in all other cases.

Solved cases (5 shown):
CC(=O)O.CCc1cccc2c3c([nH]c12)C(CC)(CC(=O)OCCN(CC)CC)OCC3 (centres unmarked)    true (1)
CN(C)CCCC(=O)OC1=C(C(=O)Nc2ccccn2)N(C)S(=O)(=O)c2ccsc21.Cl    true (1)
CN(C)CCCC(=O)OC1=C(C(=O)Nc2ccccn2)N(C)S(=O)(=O)c2cc(Cl)sc21.Cl    true (1)
CC(=O)O.CCN(CC)CCOC(=O)C(C)c1ccc(CC(C)C)cc1 (centres unmarked)    true (1)
CC(=O)O.CCN(CC)CCOC(=O)C(C)c1ccc(N2CC=CC2)c(Cl)c1 (centres unmarked)    false (0)

# check: In vitro penetration rate (apparent flux), prodrug compounds < 2000 μg/cm^2/h for CC(=O)O.CCN(CC)CCOC(=O)C(Cl)c1ccc(C2CCCCC2)c(Cl)c1 (centres unmarked)
false (0)

# check: In vitro penetration rate (apparent flux), prodrug compounds < 2000 μg/cm^2/h for `CC(=O)O.CCN(CC)CCOC(=O)c1cccnc1Nc1cccc(C(F)(F)F)c1C`
true (1)

# check: In vitro penetration rate (apparent flux), prodrug compounds < 2000 μg/cm^2/h for `CC(=O)O.CCN(CC)CCOC(=O)Cc1ccccc1Oc1ccc(Cl)cc1Cl`
true (1)
